pIC50: −log10 of the molar value.
// note: pIC50 values for UniProtKB P43405 were reported in different studies
measured-parameter: pIC50

COc1cc(-c2cc3nccc(-c4cccc(C(=O)NC[C@H](O)[C@@H](O)[C@H](O)[C@H](O)CO)c4)c3o2)cc(OC)c1OC
4.30 to 5.52
CC(C)(C)OC(=O)Nc1ccc(Nc2nc(NC3CC3)c3nc[nH]c3n2)cc1
8.30
COc1cccc(Nc2nc3c(-c4cnn(C)c4)nccn3n2)c1
4.30 to 5.52
Cn1ccc(-c2nc(Nc3ccc(N4CCOCC4)cc3)c3[nH]ncc3n2)n1
6.00 to 7.00
O=C1Cc2cc(Nc3nc4c(-c5cnc6ccccc6c5)nccn4n3)ccc2N1
4.30 to 5.52
COc1cc(Nc2nc(-c3cnc4c(c3)NCCO4)cn3ccnc23)ccc1N1CC2COCC2C1 (stereo not shown)
7.80
c1cc(N2CCOCC2)ccc1Nc1nc2cncc(-c3cn[nH]c3)n2n1
> 6.00
COc1cc(Nc2cc(Oc3ccc(NC(=O)Nc4cc(C(C)(C)C)cc(NS(C)(=O)=O)c4OC)c4ccccc34)ccn2)ccc1C(=O)N[C@@H](C)CN1CCOCC1
6.63
Cc1cccc(-c2cc3nccc(-c4cccc(C)c4)c3o2)c1
4.30 to 5.52
Cn1c(=O)c(Nc2ccc(N3CCOCC3)cc2)nc2ccc(-c3cnc(N)[nH]3)cc21
7.20
N[C@H]1CCCC[C@H]1Nc1nc(-c2cc3ncccc3s2)c2c(c1F)CNC2=O
8.30
CC(=O)c1ccc(-c2cc3nccc(-c4cnn(C)c4)c3o2)cc1
5.52 to 6.52
CC(=O)N1CC(c2ccc(-c3cc4nccnc4c(OC[C@@H]4CN(C(C)=O)CCO4)n3)cc2)C1
6.89
CCc1cccc(Nc2nc3ccc(S(C)(=O)=O)cc3c3c[nH]nc23)c1
6.00 to 7.00
NS(=O)(=O)c1cccc(Nc2nc3cncc(-c4cnc5ccccc5c4)n3n2)c1
5.30 to 6.00
NC(=O)c1cnc(Nc2ccc3c(c2)OC[C@H]2CN(C(=O)C(F)(F)F)CCN32)nc1NC1CC1
> 7.30
